Experiment: comparative stability of hypochlorous acid in the presence of various ingredients (free available chlorine, FAC)
Assay type: physicochemical
Condition Description: component tested at 0.01 M in hypochlorous acid solution; start
Kindly apply the following: y if FAC Start is less than 200 ppm, n in every other case.

Here are 4 compounds together with their reported answers.
compound="CC(=O)O [Acetic Acid]" class_name=n
compound="O=P([O-])(O)O.[Na+] [Sodium Monobasic Phosphate]" class_name=n
compound="O=C([O-])CC(O)(CC(=O)[O-])C(=O)[O-].[Na+].[Na+].[Na+] [Sodium Citrate]" class_name=y
compound="O=C(O)CC(O)(CC(=O)O)C(=O)O [Citric Acid]" class_name=y

Moving on to another compound below.
## Input Lab note: FAC Start threshold 200 ppm. Does this compound come in strictly under it? O=P([O-])([O-])O.[Na+].[Na+] [Sodium Dibasic Phosphate]
## Output n

###

Experiment: comparative stability of hypochlorous acid in the presence of various ingredients (free available chlorine, FAC)
Format: physicochemical
Condition Description: component tested at 1%; start
Source text: Free available chlorine or free active chlorine (FAC) refers to the amount of chlorine that is available to disinfect or kill microorganisms. […] Measurement and quantification of FAC is typically accomplished by a titration or colorimetric method. […] Table 1 illustrates the comparative stability of hypochlorous acid in the presence of various ingredients. The inventors determined that only specific ingredients disclosed in the disclosed embodiments are compatible with hypochlorous acid. […]
Kindly supply the reported FAC Start values for the records listed here.

Worked cases, answers included:
compound="CC(O)CO (stereo not shown)" reported_property="FAC Start" obs_value="99 ppm"
compound=OCC(O)CO reported_property="FAC Start" obs_value="102 ppm"
compound="CCCCCCCCCCO[C@@H]1O[C@H](CO)[C@@H](O)[C@H](O)[C@H]1O [Decyl Glucoside]" reported_property="FAC Start" obs_value="3 ppm"

// switching to the query compound
For CC(C)(CO)C(O)C(=O)NCCCO (stereo not shown) the compound record lists FAC Start as 101 ppm

###

Kindly supply the reported % change/day values for the records listed here.
Experiment: comparative stability of hypochlorous acid in the presence of various ingredients (free available chlorine, FAC)
Format: physicochemical
Condition Description: FAC; component 0.01 M; time 2 days
Please state the number and follow it with the unit.

Worked cases, answers included:
compound="O=P([O-])(O)O.[Na+] [Sodium Monobasic Phosphate]" reported_property="% change/day" obs_value=2%
compound=O=C(O)CC(O)(CC(=O)O)C(=O)O reported_property="% change/day" obs_value=−49%
compound="O=P([O-])([O-])O.[Na+].[Na+] [Sodium Dibasic Phosphate]" reported_property="% change/day" obs_value=16%
compound="O=C([O-])CC(O)(CC(=O)[O-])C(=O)[O-].[Na+].[Na+].[Na+] [Sodium Citrate]" reported_property="% change/day" obs_value=−49%

// switching to the query compound
For `CC(=O)O` the compound record lists % change/day as 2%

###

Experiment: comparative stability of hypochlorous acid in the presence of various ingredients (free available chlorine, FAC)
Format: physicochemical
Condition Description: FAC; component 1%; time 3 days
Kindly supply the reported % change/day values for the records listed here.
Give bare numbers, in %.

compound="CC(O)CO (stereo not shown)" obs_value=−11

Each of the following entries comes with a recorded value; kindly state % change/day for each.
1. CCCCCCCCCCO[C@@H]1O[C@H](CO)[C@@H](O)[C@H](O)[C@H]1O [Decyl Glucoside]
2. OCC(O)CO
3. CC(C)(CO)C(O)C(=O)NCCCO (stereo not shown)

## Output
−100
−17
−26

###

Experiment: comparative stability of hypochlorous acid in the presence of various ingredients (free available chlorine, FAC)
Format: physicochemical
Condition Description: component 1%; time 3 days
Text: Free available chlorine or free active chlorine (FAC) refers to the amount of chlorine that is available to disinfect or kill microorganisms. […] Measurement and quantification of FAC is typically accomplished by a titration or colorimetric method. […] Table 1 illustrates the comparative stability of hypochlorous acid in the presence of various ingredients. The inventors determined that only specific ingredients disclosed in the disclosed embodiments are compatible with hypochlorous acid. […]
Reported Property: FAC End (ppm)
Numbers only, in ppm.

Worked cases, answers included:
molecule="CC(C)(CO)C(O)C(=O)NCCCO (stereo not shown) [DI-Panthenol]" value_units=ppm obs_value=23
molecule="CCCCCCCCCCO[C@@H]1O[C@H](CO)[C@@H](O)[C@H](O)[C@H]1O [Decyl Glucoside]" value_units=ppm obs_value=0
molecule="CC(O)CO (stereo not shown) [Propylene Glycol]" value_units=ppm obs_value=67

// switching to the query molecule
For OCC(O)CO [Glycerin] the molecule record lists FAC End as 50

###

Experiment: comparative stability of hypochlorous acid in the presence of various ingredients (free available chlorine, FAC)
Format: physicochemical
Condition Description: component 0.01 M; time 2 days
Reported Property: FAC End (ppm)
Numbers only, in ppm.

compound=O=C(O)CC(O)(CC(=O)O)C(=O)O value_units=ppm obs_value=5.1
compound="O=C([O-])CC(O)(CC(=O)[O-])C(=O)[O-].[Na+].[Na+].[Na+] [Sodium Citrate]" value_units=ppm obs_value=2.6
compound=CC(=O)O value_units=ppm obs_value=384.6
compound="O=P([O-])(O)O.[Na+] [Sodium Monobasic Phosphate]" value_units=ppm obs_value=374.4

// switching to the query compound
For O=P([O-])([O-])O.[Na+].[Na+] [Sodium Dibasic Phosphate] the compound record lists FAC End as 331.1
